# credit: BindingDB's records for PubMed 17827

# Lookup of reported Ki keyed by entry
- tested_system: Alpha-1A adrenergic receptor (Rattus norvegicus)
- Sequence (P43140 whole entry): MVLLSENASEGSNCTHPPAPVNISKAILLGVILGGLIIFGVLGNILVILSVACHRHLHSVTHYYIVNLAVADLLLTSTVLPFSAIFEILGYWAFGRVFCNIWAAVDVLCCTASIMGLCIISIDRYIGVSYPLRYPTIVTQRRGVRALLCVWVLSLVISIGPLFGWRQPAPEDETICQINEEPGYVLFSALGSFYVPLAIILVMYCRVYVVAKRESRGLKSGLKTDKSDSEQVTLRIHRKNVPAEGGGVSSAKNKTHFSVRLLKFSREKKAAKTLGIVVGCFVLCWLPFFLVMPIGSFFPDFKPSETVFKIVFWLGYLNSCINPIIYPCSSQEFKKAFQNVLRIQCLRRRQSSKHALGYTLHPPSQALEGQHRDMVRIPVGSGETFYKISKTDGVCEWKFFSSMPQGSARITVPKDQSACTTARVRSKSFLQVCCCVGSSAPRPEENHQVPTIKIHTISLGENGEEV
measured_attribute: Ki

>>> df
                        structure_as_smiles                             tested_system  measurement
0  CN1C[C@H](C(=O)N[C@]2(C)O[C@@]3(O)[C@@H]4CCCN4C(=O)[C@H](Cc4ccccc4)N3C2=O)C=C2c3cccc4[nH]cc(c34)C[C@H]21  Alpha-1A adrenergic receptor (Rattus norvegicus)        12 nM
1  CCN(CC)C(=O)[C@@H]1C=C2c3cccc4[nH]cc(c34)C[C@H]2N(C)C1  Alpha-1A adrenergic receptor (Rattus norvegicus)       220 nM
2            CN(C)CCC=C1c2ccccc2CCc2ccccc21  Alpha-1A adrenergic receptor (Rattus norvegicus)       530 nM
